Molecular target: UniProt:P08908
Sequence (P08908 whole entry): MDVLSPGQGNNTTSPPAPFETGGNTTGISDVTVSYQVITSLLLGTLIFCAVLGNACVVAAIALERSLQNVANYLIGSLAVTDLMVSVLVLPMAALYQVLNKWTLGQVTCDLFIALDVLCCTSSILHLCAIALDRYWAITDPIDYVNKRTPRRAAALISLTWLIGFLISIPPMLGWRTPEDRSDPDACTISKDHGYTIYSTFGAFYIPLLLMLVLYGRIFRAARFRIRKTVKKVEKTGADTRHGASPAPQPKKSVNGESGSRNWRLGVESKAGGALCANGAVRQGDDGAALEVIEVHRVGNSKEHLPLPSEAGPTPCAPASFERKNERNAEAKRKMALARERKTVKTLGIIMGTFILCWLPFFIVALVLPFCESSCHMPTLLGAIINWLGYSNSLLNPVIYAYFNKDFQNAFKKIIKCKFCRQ
Test: Binding affinity to human 5HT1A receptor expressed in HeLa cells by scintillation proximity assay
Assay type: cell-based
Measured Quantity: pKi
# pKi is unitless: minus log10 of the molar concentration; print number only

*Q* What value of pKi has been reported for the following compound? `O=C1NCc2ccc(OCCCCN3CCN(c4cccc5c4CCC5)CC3)cc21`
*A* 9.13

###

Molecular target: Sodium-dependent serotonin transporter (Homo sapiens)
Sequence (P31645 whole entry): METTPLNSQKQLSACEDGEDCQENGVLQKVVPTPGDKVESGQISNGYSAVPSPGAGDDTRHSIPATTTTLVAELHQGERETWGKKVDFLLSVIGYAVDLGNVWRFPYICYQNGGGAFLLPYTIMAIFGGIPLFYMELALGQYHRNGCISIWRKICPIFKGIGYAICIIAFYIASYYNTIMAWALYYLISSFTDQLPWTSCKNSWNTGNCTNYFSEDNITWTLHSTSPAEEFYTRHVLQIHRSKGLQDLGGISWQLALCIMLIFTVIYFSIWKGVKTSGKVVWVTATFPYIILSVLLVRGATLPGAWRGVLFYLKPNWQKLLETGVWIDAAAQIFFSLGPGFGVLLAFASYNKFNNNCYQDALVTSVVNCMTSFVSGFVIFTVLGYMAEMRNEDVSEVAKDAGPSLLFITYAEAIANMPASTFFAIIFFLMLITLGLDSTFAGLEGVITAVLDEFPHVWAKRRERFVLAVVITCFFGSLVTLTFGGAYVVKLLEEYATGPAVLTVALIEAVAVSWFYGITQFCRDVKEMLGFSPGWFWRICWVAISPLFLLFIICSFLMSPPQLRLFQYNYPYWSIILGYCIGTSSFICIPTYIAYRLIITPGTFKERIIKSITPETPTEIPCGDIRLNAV
Experiment: Displacement of [3H]-citalopram from human serotonin transporter expressed in HEK 293 cells by scintillation proximity assay
Type: cell-based, HEK293
Parameter Ki: see the listing below.
Response body: numeric value in µM, unit text excluded.

Some molecules with known Ki results, for comparison:
O=C1NCc2cc(Cl)c(OCCCN3CCN(c4cccc5ccccc45)CC3)cc21    0.0677
O=C1NCc2cc(F)c(OCCCCN3CCN(c4cccc5cccc(F)c45)CC3)cc21    0.0426
Cc1c(OCCCCN2CCN(c3cccc4cc(F)ccc34)CC2)ccc2c1C(=O)NC2    0.047

*Q* Recorded Ki of `O=C1NCc2cc(F)c(OCCCN3CCN(c4cccc5cc(F)ccc45)CC3)cc21` , please.
*A* 0.00922

*Q* Ki lookup needed for `Cc1c(OCCCCN2CCN(c3cccc4ccccc34)CC2)ccc2c1C(=O)NC2` , thanks.
*A* 0.388

###

Biological target: 5-hydroxytryptamine receptor 2A (Homo sapiens, UniProt P28223)
Sequence (P28223 whole entry): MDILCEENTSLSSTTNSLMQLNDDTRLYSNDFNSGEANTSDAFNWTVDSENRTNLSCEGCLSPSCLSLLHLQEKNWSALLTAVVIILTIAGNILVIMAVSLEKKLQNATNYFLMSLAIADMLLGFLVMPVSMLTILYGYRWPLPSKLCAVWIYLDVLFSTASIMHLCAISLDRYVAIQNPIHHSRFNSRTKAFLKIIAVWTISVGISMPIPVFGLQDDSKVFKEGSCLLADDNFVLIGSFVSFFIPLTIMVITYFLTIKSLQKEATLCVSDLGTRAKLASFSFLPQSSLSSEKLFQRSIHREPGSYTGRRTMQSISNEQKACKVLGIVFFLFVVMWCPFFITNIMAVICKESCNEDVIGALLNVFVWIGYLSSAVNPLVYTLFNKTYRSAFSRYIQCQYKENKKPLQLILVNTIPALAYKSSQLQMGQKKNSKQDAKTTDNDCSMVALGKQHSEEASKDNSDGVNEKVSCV
Measured Quantity: pKi
Scale explanation: pKi corresponds to minus log10 of a concentration expressed in moles per litre.

Use these answered entries as a reference point.
Cc1c(OCCCN2CCN(c3cccc4cc(F)ccc34)CC2)ccc2c1C(=O)NC2    7.90
O=C1NCc2cc(F)c(OCCCCN3CCN(c4cccc5cc(F)ccc45)CC3)cc21    7.86
O=C1NCc2ccc(OCCCCN3CCN(c4cccc5ccc(F)cc45)CC3)cc21    7.94
O=C1NCc2ccc(OCCCCN3CCN(c4cccc5cc(F)ccc45)CC3)cc21    8.02
Cc1c(OCCCCN2CCN(c3cccc4cc(F)ccc34)CC2)ccc2c1C(=O)NC2    7.85

--- query ---
*Q* Item: `O=C1NCc2ccc(OCCCCN3CCN(c4cccc5c4OCCC5)CC3)cc21` Test system: 5-hydroxytryptamine receptor 2A (Homo sapiens, UniProt P28223) Read-out: pKi Value: ?
*A* 7.77

###

Target: 5-hydroxytryptamine receptor 1A (Homo sapiens, UniProt P08908)
Assay: Binding affinity to human 5HT1A receptor expressed in HeLa cells by scintillation proximity assay
Assay type: cell-based
Measured Quantity: pKi
Just the number, please; pKi means minus log10 of the concentration in mol/L.

Cc1cc2c(cc1OCCCCN1CCN(c3cccc4cc(F)ccc34)CC1)C(=O)NC2    8.70

*Q* // pKi lookup, key: `Cc1c(OCCCCN2CCN(c3cccc4cccc(F)c34)CC2)ccc2c1C(=O)NC2`
*A* 8.58

*Q* Can you share its pKi? I mean this compound: `O=C1NCc2ccc(OCCCN3CCN(c4cccc5c4CCO5)CC3)cc21`
*A* 8.84

*Q* Entry `O=C1NCc2ccc(OCCCCN3CCN(c4cccc5cccc(F)c45)CC3)c(F)c21` : reported pKi = ?
*A* 8.68

###

Target: Voltage-gated inwardly rectifying potassium channel KCNH2 (Homo sapiens)
Sequence (Q12809 whole entry): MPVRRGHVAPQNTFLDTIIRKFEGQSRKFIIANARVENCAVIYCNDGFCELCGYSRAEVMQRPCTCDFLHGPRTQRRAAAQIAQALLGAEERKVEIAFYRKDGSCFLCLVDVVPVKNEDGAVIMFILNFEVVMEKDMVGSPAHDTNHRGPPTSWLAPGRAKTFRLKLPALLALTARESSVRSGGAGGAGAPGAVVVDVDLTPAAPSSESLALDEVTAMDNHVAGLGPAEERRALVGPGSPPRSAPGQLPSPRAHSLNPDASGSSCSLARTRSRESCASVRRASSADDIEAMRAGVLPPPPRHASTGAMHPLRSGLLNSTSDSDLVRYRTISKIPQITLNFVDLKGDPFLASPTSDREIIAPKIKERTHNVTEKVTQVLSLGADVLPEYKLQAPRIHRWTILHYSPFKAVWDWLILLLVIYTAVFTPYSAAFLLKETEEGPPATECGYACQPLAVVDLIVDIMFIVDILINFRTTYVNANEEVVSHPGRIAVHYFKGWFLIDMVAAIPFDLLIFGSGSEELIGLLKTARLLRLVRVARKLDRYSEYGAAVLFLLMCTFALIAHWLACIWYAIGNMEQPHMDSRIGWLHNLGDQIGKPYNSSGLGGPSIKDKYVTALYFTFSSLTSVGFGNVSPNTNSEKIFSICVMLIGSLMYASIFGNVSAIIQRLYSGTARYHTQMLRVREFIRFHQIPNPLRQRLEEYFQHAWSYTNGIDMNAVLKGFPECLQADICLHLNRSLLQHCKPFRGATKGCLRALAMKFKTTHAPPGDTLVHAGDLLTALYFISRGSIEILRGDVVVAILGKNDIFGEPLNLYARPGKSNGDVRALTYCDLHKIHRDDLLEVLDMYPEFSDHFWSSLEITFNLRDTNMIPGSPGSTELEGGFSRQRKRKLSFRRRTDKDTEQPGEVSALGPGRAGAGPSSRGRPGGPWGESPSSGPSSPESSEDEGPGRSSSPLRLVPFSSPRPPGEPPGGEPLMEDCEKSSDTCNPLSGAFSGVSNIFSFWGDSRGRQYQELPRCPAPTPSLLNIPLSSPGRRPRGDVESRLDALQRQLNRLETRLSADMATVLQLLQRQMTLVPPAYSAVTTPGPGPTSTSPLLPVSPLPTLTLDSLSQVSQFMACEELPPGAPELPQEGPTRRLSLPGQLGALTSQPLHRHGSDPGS
Consider the cut-off 2000 nM. If the recorded Ki is strictly smaller, the label is TRUE; if not, the label is FALSE.

Reference set, count: 4
Fc1ccc2cccc(N3CCN(CCCCOc4ccc5c(c4)CNC5)CC3)c2c1    TRUE
O=C1NCc2ccc(OCCCN3CCN(c4cccc5cc(F)c(F)cc45)CC3)cc21    TRUE
c1ccc2c(N3CCN(CCCCOc4ccc5c(c4)CNC5)CC3)cccc2c1    TRUE
Fc1ccc2cccc(N3CCN(CCCOc4ccc5c(c4)CNC5)CC3)c2c1    TRUE

Okay, now this compound:
*Q* Given `O=C1NCc2ccc(OCCCN3CCN(c4cccc5ccccc45)CC3)cc21` , is recorded Ki strictly lower than 2000 nM?
*A* FALSE

###

Listed below: Ki values for each entry.
Molecular target: UniProt P08908
Sequence (P08908 whole entry): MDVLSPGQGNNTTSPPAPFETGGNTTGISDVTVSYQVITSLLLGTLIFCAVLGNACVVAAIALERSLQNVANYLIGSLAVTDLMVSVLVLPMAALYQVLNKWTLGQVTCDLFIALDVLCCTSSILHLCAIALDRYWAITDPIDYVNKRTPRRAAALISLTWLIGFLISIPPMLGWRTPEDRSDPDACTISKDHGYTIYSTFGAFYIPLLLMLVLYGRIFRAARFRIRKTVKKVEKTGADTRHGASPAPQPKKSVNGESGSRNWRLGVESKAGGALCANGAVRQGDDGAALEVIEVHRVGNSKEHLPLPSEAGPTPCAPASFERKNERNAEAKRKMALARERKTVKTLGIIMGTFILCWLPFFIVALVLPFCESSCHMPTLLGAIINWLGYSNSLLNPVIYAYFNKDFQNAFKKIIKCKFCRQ
Experiment: biochemical
Description: Displacement of [3H]-8-OH-DPAT from human 5HT1A receptor expressed in HeLa cells

O=C1NCc2ccc(OCCCN3CCN(c4cccc5cc(F)c(F)cc45)CC3)cc21    0.179 nM
O=C1NCc2ccc(OCCCCN3CCN(c4cccc5cc(F)c(F)cc45)CC3)cc21    1.3 nM

# next compound below
*Q* Ki lookup needed for `O=C1NCc2ccc(OCCCN3CCN(c4cccc5cc(F)ccc45)CC3)cc21` , thanks.
*A* 1.54 nM

###

Target: 5-hydroxytryptamine receptor 1A (Homo sapiens, UniProt P08908)
Assay: Binding affinity to human 5HT1A receptor expressed in HeLa cells by scintillation proximity assay
Type: cell-based
Measured Quantity: pKi
pKi is a log-scale quantity: -log10 of the concentration expressed in molar.

Known results for compounds:
O=C1NCc2ccc(OCCCCN3CCN(c4cccc5cccc(F)c45)CC3)c(Cl)c21    8.37
O=C1NCc2ccc(OCCCCN3CCN(c4cccc5c4CCO5)CC3)cc21    8.84
O=C1NCc2ccc(OCCCN3CCN(c4cccc5ccccc45)CC3)c(Cl)c21    9.10

*Q* Under 5-hydroxytryptamine receptor 1A (Homo sapiens, UniProt P08908): pKi value of `O=C1NCc2ccc(OCCCCN3CCN(c4cccc5cc(F)ccc45)CC3)c(F)c21` ?
*A* 8.30
